# Tested on: NCI-H23
# Protocol Details: NCI tumour cell line growth inhibition, 48 h
The source made the active and inactive calls. Rule as the data show it: active = GI50 up to about 1.1 µM and inactive = higher.
Outcome codes: active, inactive

Compound | System Under Test | Category
NC1CCCCC1.O=C(O)C1(P(=O)(O)O)CC1 | NCI-H23 | inactive
COc1ccc2c(c1)SC1=Nc3sc4cc(OC)ccc4[n+]3CN12 | NCI-H23 | inactive
NC(Cc1c[nH]c2ccccc12)P(=O)(O)O (stereo unspecified) | NCI-H23 | inactive
Cn1nnc2c(C(N)=O)ncn2c1=O [TEMOZOLOMIDE] | NCI-H23 | inactive
Nc1ncnc2c1ncn2Cc1cccc(CCl)c1 | NCI-H23 | inactive
CCOC(=O)c1csc(NC(=O)CN(C)C)n1 | NCI-H23 | inactive
COc1ccc(CC2C(=O)NC(C)C(=O)N(C)C3Cc4ccc(cc4)Oc4cc(ccc4O)CC(C(=O)NC(C)C(=O)NC(C)C(=O)N2C)N(C)C3=O)cc1 (stereo unspecified) | NCI-H23 | active
Cc1ccc(S[C@@H](C)[C@@](O)(CF)CN(Cc2ccccc2)C(=O)C(F)(F)F)cc1 | NCI-H23 | inactive
CC(Cl)CC(=O)OCC1CCCN2CCCCC12 (stereo unspecified) | NCI-H23 | inactive
COC(=O)NC(Cc1ccccc1)NC(C)=O (stereo unspecified) | NCI-H23 | inactive
S=C1ON=C(c2ccccc2)/C1=C/Nc1ccccc1 | NCI-H23 | inactive

Ref: ChEMBL document CHEMBL1201862
